Exercise: state measured IC50 for each of the molecules provided.
Target: EP2 receptor (Homo sapiens, UniProt P35408)
Sequence (P35408 whole entry): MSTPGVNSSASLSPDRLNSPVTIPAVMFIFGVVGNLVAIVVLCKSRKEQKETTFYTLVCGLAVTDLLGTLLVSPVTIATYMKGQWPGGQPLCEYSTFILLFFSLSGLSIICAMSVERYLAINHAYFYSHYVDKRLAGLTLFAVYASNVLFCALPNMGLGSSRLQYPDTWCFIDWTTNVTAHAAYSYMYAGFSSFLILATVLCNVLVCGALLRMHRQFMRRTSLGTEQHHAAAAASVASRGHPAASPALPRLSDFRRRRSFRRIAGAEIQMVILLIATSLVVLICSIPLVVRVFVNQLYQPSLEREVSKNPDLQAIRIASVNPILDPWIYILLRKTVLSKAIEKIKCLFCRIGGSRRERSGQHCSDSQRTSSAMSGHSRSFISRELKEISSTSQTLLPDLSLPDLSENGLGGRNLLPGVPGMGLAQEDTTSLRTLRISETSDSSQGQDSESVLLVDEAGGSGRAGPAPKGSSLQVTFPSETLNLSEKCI
Assay: [3H]PGE2 binding (competition) assay, membranes of COS-M6 cells transfected with EP2
Design: full-length human EP2 cDNA was isolated; This 1.958 kb cDNA clone encodes a 488-amino acid protein; expressed in transfected cells; host or cells: COS-M6 cells (pcDNAIamp plasmid, DEAE-dextran), 100,000 x g membrane fraction
Settings: read-out: IC50
Give bare numbers, in µM.

[
  {
    "molecule": "CCCCC(C)(O)C/C=C/[C@H]1[C@H](O)CC(=O)[C@@H]1CCCCCCC(=O)OC (mixture of isomers)",
    "measured.on": "EP2 receptor (Homo sapiens, UniProt P35408)",
    "endpoint.unit": "µM",
    "observed.result": 6.03
  }
]

Write down the reported IC50 of "CCCC1([C@H](O)C/C=C/[C@H]2[C@H](O)CC(=O)[C@@H]2CCCCCCC(=O)OC)CCC1" , test system: EP2 receptor (Homo sapiens, UniProt P35408).
30
